METHOD_DESCRIPTION: pharmacokinetic parameters of VPA in dogs after oral administration of the ester or DEPAKINE
Type: in vivo, dog
CONDITION_SUMMARY: dog, in vivo, po, 400 mg, VPA; dog 1
QUANTITY_NAME: CL/F (mL/min)
The reply should be a number in mL/min, with the unit left off.

Q: Given the compound CCCC(CCC)C(=O)OC(C)OC(=O)OCC (stereo not shown) , what is its reported CL/F?
A: 66.7

----------
METHOD_DESCRIPTION: pharmacokinetic parameters of VPA in dogs after oral administration of the ester or DEPAKINE;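 also: comparator arm received VPA orally as the free acid rather than as the ester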
Format: in vivo, dog
CONDITION_SUMMARY: dog, in vivo, po, 400 mg, VPA; dog 3; oral; 400 mg; read-out: V
QUANTITY_NAME: Vd/F (L)
The reply should be a number in L, with the unit left off.

Q: Given the compound CCCC(CCC)C(=O)OC(C)OC(=O)OCC (stereo not shown) [1'-ethoxycarbonyloxyethyl ester] , what is its reported Vd/F?
A: 5.08
